assay method text: In vitro peptide stability in human serum (RP-HPLC)
condition context: human, human serum, 25% (v/v) in RPMI
Square brackets hold non-standard residues; d marks the D form. Peptide text beside a SMILES is read from it.
observation type: half-life at 50 µg/mL
Answer with the figure and its unit, nothing else.

CC(C)C[C@H](NC(=O)[C@@H](N)Cc1ccc(O)cc1)C(=O)N1CCC[C@H]1C(=O)NCC(=O)N[C@@H](CCC(N)=O)C(=O)N[C@@H](Cc1ccc(O)cc1)C(=O)N[C@@H](C)C(=O)N[C@@H](Cc1ccccc1)C(=O)N[C@H](Cc1ccccc1)C(=O)O [compound 80] (H-YLPGQYAF[dF]-OH; N-terminus assumed) = 36 min
C[C@H](NC(=O)[C@H](Cc1ccc(O)cc1)NC(=O)[C@H](CCC(N)=O)NC(=O)CNC(=O)[C@@H]1CCCN1C(=O)[C@H](CCC(=O)O)NC(=O)[C@@H](N)Cc1ccc(O)cc1)C(=O)N[C@@H](Cc1ccccc1)C(=O)N[C@H](CO)C(=O)O [compound 94] (H-YEPGQYAF[dS]-OH; N-terminus assumed) = 47 min

Name the recorded half-life at 50 µg/mL for CC(C)C[C@H](NC(=O)[C@H](N)Cc1ccc(O)cc1)C(=O)N1CCC[C@H]1C(=O)NCC(=O)N[C@@H](CCC(N)=O)C(=O)N[C@@H](Cc1ccc(O)cc1)C(=O)N[C@@H](C)C(=O)N[C@@H](Cc1ccc(O)cc1)C(=O)N[C@@H](CO)C(=O)O [compound 101] (H-[dY]LPGQYAYS-OH; N-terminus assumed) . 81 min
